Listing of recorded pEC50 by entry.
- Species on record: Sus scrofa
- method.notes: Concentrations required to induce 50 percent polymerization of porcine brain-derived micro-tubule protein
- Format: functional
// returns pEC50 (minus log10 of molar concentration), number only

Guide cases for pEC50, answers given:
| record.smiles | result.value |
| --- | --- |
| C/C(=C\c1csc(C)n1)[C@@H]1C[C@@H]2O[C@]2(C)CCC[C@H](C)[C@H](O)[C@@H](C)C(=O)C(C)(C)[C@@H](O)CC(=O)O1 | 6.17 |
| C/C(=C\c1csc(C)n1)[C@@H]1C[C@@H]2O[C@@H]2CCC[C@H](C)[C@H](O)[C@@H](C)C(=O)C(C)(C)[C@@H](O)CC(=O)O1 | 5.95 |
| C/C1=C/C[C@@H](c2ccc3sc(C)nc3c2)OC(=O)C[C@H](O)C(C)(C)C(=O)[C@H](C)[C@@H](O)[C@@H](C)CCC1 | 6.03 |

As a next step, examine the compound that follows.
# input I am curious: what pEC50 value has been reported for C/C1=C/C[C@@H](/C(C)=C/c2csc(C)n2)OC(=O)C[C@H](O)C(C)(C)C(=O)[C@H](C)[C@@H](O)[C@@H](C)CCC1 ?
# output 6.06
